Values from PubChem BioAssay AID2685

measurement-notes: qHTS Assay for Lipid Storage Modulators in Drosophila S3 Cells;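 further: cells counted by Cell Tracker Red CMTPX staining in the red channel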
condition-label: BODIPY lipid droplet fluorescence, 18-24 h, cells fed with added oleic acid; measured here: cell count max response
Excerpt: NIH Molecular Libraries Probe Production Centers Network [MLPCN] NIH Chemical Genomics Center [NCGC] […] Triacsin C (Sigma-Aldrich T-4540), an inhibitor of long-chain fatty acyl CoA synthetase that blocks synthesis of triglycerides, was used as a positive control for lipid under-storage. […] Fluorescence was detected by excitation of the fluorophores with a 488-nm laser on an Acumen Explorer (TTP Lab Tech). […] Cells were detected using channel 3 (575-640 nm) with 5-um width and 100-um depth filters. […]
In all, about 320,000 compounds went through this assay and about 2,100 (0.66%) were called active. Another 53% or so got no clear call; they are omitted. Only a selection was taken, and actives are over-represented in it overall.
observation-type: cell number change (%)
One number for each entry, in %.

Reference set, count: 8
Incoming: Fill blank: measured cell number change of the compound `Cc1nc2c(-c3ccccc3)cnn2c(N2CCOCC2)c1C` is ____.
Outgoing: -16.7

Incoming: Fill blank: measured cell number change of the compound `Cc1cc(NC(=O)c2cc([N+](=O)[O-])cc([N+](=O)[O-])c2)no1` is ____.
Outgoing: 2.37

Incoming: Fill blank: measured cell number change of the compound `O=C(c1ccc(C#CC2(O)CCCCC2)cc1)N1CCOCC1` is ____.
Outgoing: 5.75

Incoming: Fill blank: measured cell number change of the compound Cc1[nH]c2ccccc2c1/C=N/NC(=O)C1CC1(c1ccccc1)c1ccccc1 (stereo not drawn) is ____.
Outgoing: -28.5

Incoming: Fill blank: measured cell number change of the compound `Cc1cc(N2CCOCC2)n2ncc(-c3ccccc3)c2n1` is ____.
Outgoing: -5.35

Incoming: Fill blank: measured cell number change of the compound `Cc1cc(NC(=O)c2ccc(C)c([N+](=O)[O-])c2)no1` is ____.
Outgoing: 0.478

Incoming: Fill blank: measured cell number change of the compound O=C(C1=C(O)C(=O)N(CCN2CCOCC2)C1c1ccc(F)cc1)c1cccs1 (stereo not drawn) is ____.
Outgoing: -5.07

Incoming: Fill blank: measured cell number change of the compound COc1ccc(NS(=O)(=O)c2cccc(C(=O)NCC(c3ccco3)N3CCCC3)c2)cc1 (stereo not drawn) is ____.
Outgoing: 21.4

I need cell number change for every entry listed below, if you could help.
1. CC(C)c1nc(SCC(=O)N2CCOCC2)c2c(=O)n(C)c(=O)n(C)c2n1
2. COc1nc(OC)nc(N2CCC(C(=O)Nc3cccc4ccccc34)CC2)n1
3. CN1CCN(c2nc3ccccn3c(=O)c2C=O)CC1
4. Cc1ccc(S(=O)(=O)C2(C(=O)NC3CCCCC3C)CC2)cc1 (stereo not drawn)

Outgoing:
5.66
-0.422
25
-11.4

I need cell number change for every entry listed below, if you could help.
1. COc1cccc(CN2CC(C(=O)N3CCOCC3)CCC2=O)c1 (stereo not drawn)
2. CC(=O)C1=C(O)C(=O)N(CCO)C1c1ccccc1 (stereo not drawn)
3. NC(=O)c1cc(C(=O)Cc2ccc(Cl)cc2)c[nH]1
4. Cc1cc(C)cc(-c2nnc(SCC(=O)NC3CC3)o2)c1

Outgoing:
-3.29
1.42
23.6
9.78

I need cell number change for every entry listed below, if you could help.
1. COc1ccc(N2CCN(C(c3ccc4ncccc4c3)c3nnnn3C(C)C)CC2)cc1 (stereo not drawn)
2. CC(=O)Nc1ccc(NC(=O)Nc2cc(C)cc(C)c2)cc1
3. O=C1C(=O)N(CCN2CCOCC2)C(c2ccccn2)/C1=C(/O)c1ccccc1 (stereo not drawn)

Outgoing:
1. 3.49
2. 7.61
3. 1.37
